assay: Bioavailability after oral administration of 20 mg/kg in rat; format: ADME, organism-based; conditions: in vivo
propertyMeasured: bioavailability (%)
Numbers only, in %.

Specify bioavailability for N#CN1CCC(NS(=O)(=O)c2ccccc2)C1 (stereo unspecified) and stop.
38

* * *

I'd appreciate it if you could supply IC50 values for the items below.
molecular target: Procathepsin L (Homo sapiens, UniProt P07711)
Sequence (P07711 whole entry): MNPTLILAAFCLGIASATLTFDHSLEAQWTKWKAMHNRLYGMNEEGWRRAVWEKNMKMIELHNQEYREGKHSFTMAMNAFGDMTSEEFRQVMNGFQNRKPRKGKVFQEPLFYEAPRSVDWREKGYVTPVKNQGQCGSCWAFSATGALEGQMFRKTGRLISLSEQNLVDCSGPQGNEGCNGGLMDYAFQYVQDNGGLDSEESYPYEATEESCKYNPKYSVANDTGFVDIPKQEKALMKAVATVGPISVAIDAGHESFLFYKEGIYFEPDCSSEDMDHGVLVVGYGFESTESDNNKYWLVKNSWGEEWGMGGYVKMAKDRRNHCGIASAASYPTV
Give bare numbers, in nM.

Example compounds with recorded IC50:
| compound | targetOrTestSystem | IC50 / nM |
| --- | --- | --- |
| N#CN1CCCC1 | Procathepsin L (Homo sapiens, UniProt P07711) | 4000 |
| N#CN1CCC(NC(=O)OCc2ccccc2)C1 (stereo not given) | Procathepsin L (Homo sapiens, UniProt P07711) | 54 |
| N#CN1CCC(COCc2ccccc2)C1 (stereo not given) | Procathepsin L (Homo sapiens, UniProt P07711) | 150 |
| N#CN1CCCC1CNS(=O)(=O)c1ccccc1 (stereo not given) | Procathepsin L (Homo sapiens, UniProt P07711) | 11500 |
| N#CN1CCC1 | Procathepsin L (Homo sapiens, UniProt P07711) | 430 |
| N#CN1CC(OCC2CCCCC2)C1 | Procathepsin L (Homo sapiens, UniProt P07711) | 100 |

# map each compound to its IC50
1. N#CN1CCC(NC(=O)c2ccc(-c3ccccc3)cc2)C1 (stereo not given)
2. N#CN1CC(CNC(=O)c2ccccc2)C1
3. N#CN1Cc2cc3ccccc3nc2C1

1: 850; 2: 650; 3: 450
